Recorded values, source PubChem BioAssay AID1963828.

- System: 991263-137-R1-J2-PDC complex spheroid viability;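 further: spheroids exposed to compounds for 7 days before readout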
- procedure_details: Anticancer human tumor 991263-137-R1-J2-PDC patient-derived colon adenocarcinoma cell line growth inhibition [POLQ]
- conditions_used: curve of first compound; second compound 10 µM
property: IC50 (nM)

INSERT INTO measurements (molecule, system_tested, unit_of_measure, value_operator, result_number) VALUES
  ('C=CCn1c(=O)c2cnc(Nc3ccc(N4CCN(C)CC4)cc3)nc2n1-c1cccc(C(C)(C)O)n1 + Nc1ccc(C#CCN(C(=O)Cc2ncc(C(F)(F)F)cc2C(F)(F)F)c2ccc(F)cc2)nn1', '991263-137-R1-J2-PDC complex spheroid viability', 'nM', '>', 1000),
  ('COc1cccc2c1C(=O)c1c(O)c3c(c(O)c1C2=O)CC(O)(C(=O)CO)CC3OC1CC(N)C(O)C(C)O1 (stereo not drawn) + Nc1ccc(C#CCN(C(=O)Cc2ncc(C(F)(F)F)cc2C(F)(F)F)c2ccc(F)cc2)nn1', '991263-137-R1-J2-PDC complex spheroid viability', 'nM', '=', 614),
  ('CCc1c2c(nc3ccc(O)cc13)-c1cc3c(c(=O)n1C2)COC(=O)[C@]3(O)CC + Cc1cccc(N(C)C(=O)C2C(O)CCN2c2nc(C)cc(C(F)(F)F)c2C#N)c1', '991263-137-R1-J2-PDC complex spheroid viability', 'nM', '=', 153);
